Below, each entry is listed with its recorded GI50.
tested on: OVCAR-4; test: NCI tumour cell line growth inhibition, 48 h
Activity calls are given as the source filed them. Rule as the data show it: active = GI50 up to about 1.1 µM and inactive = higher.

Cc1ccc(NC(=O)CC2Sc3ccccc3NC2=O)c(C)c1 (stereo not drawn) = 22 µM (inactive)
N#CC1(C#N)[C@@H]2CCC=C(Sc3ccccc3)[C@@H]21 = 14.3 µM (inactive)
c1ccc2sc(SSSc3nc4ccccc4s3)nc2c1 = > 100 µM (inactive)

Entry COc1ccc(CCN2CCc3c(C)c(C#N)c4nc5ccccc5n4c32)cc1OC , OVCAR-4 data, GI50 value: 26 µM (inactive)

Entry Cc1ccc(O)c(C(c2cc(C)ccc2O)c2cc([N+](=O)[O-])ccc2O)c1 , OVCAR-4 data, GI50 value: 11.8 µM (inactive)

###

tested on: M19-MEL; assay: NCI tumour cell line growth inhibition, 48 h
Active and inactive are the calls of the source. No stated cut-off is given here; in the data, active = GI50 up to about 1.1 µM and inactive = higher.
Return exactly one item of TRUE = active, FALSE = inactive

CCCC(=O)OC[n+]1ccc2c(C)c3[nH]c4ccc(OC)cc4c3c(C)c2c1 = TRUE
CC(C)[Si](OCC1CC(C[C@H]2CC(C[C@H]3C[C@@H](CO[Si](C(C)C)(C(C)C)C(C)C)OC(C)(C)O3)OC(C)(C)O2)OC(C)(C)O1)(C(C)C)C(C)C (stereo partly drawn) = FALSE
CC1CN1c1c(C(=O)/C=C/c2ccccc2)c(-c2ccccc2)nn(C)c1=O (stereo not drawn) = FALSE

## Task Test call for this molecule, please: O=S1(=O)OCCOS(=O)(=O)C1I
## Result FALSE

## Task Test call for this molecule, please: Cc1ccc(NC(=O)CCc2nnc3s/c(=C\c4cccc([N+](=O)[O-])c4)c(=O)n23)cc1
## Result FALSE

## Task Test call for this molecule, please: CCCNCc1nc2ccc(Br)cc2c(=O)n1CCC
## Result FALSE

## Task Test call for this molecule, please: Cc1ccc2c(C3Cc4ccccc4N3C(=O)/C=C\C(=O)O)c(C)[nH]c2c1 (stereo not drawn)
## Result FALSE

## Task Test call for this molecule, please: CN1OC2OC(=O)OC2[C@H]1[C@H]1O[C@H](c2ccccc2)OC1(C)c1cc(OC(=O)c2ccccc2)ccc1OC(=O)c1ccccc1 (stereo partly drawn)
## Result FALSE

## Task Test call for this molecule, please: Brc1ccc(C2CC(c3cccc4ccccc34)=Nc3ccccc3S2)cc1 (stereo not drawn)
## Result FALSE

## Task Test call for this molecule, please: C[C@H]1NC(=O)C2CCCCN2C(=O)CN(C)C(=O)CNC(=O)C2CCCCN2C(=O)[C@@H](NC(=O)c2nc3ccccc3cc2O)[C@@H](C)NC(=O)C2CCCCN2C(=O)CN(C)C(=O)CNC(=O)[C@@H]2CCCCN2C(=O)C1NC(=O)c1nc2ccccc2cc1O (stereo partly drawn)
## Result TRUE

## Task Test call for this molecule, please: Clc1ccc(/C=C/c2csnn2)cc1
## Result FALSE

###

tested on: K562; assay: NCI tumour cell line growth inhibition, 48 h
The source made the active and inactive calls. Cut-off read from the data, not from the text of the source: active = GI50 up to about 1.1 µM and inactive = higher.
ENDPOINT_LABEL: GI50

COc1cc(C2c3[nH]c4ccccc4c3[C@@H](Nc3ccc(F)cc3)[C@H]3COC(=O)N23)cc(OC)c1O (stereo partly specified) = 1.45 µM (inactive)

Entry C(=C/c1nnnn1-c1ccccc1)/Nc1ccccc1 , K562 data, GI50 value: 20.7 µM (inactive)

Entry O=C(NC(Cc1c[nH]cn1)C(=O)N1CCCC1)C1CCCC1 (stereo unspecified) , K562 data, GI50 value: > 100 µM (inactive)

Entry CC1=NN(c2nc(N)nc(CSc3nc4n(c(=S)n3)CCN4)n2)C(C)(C)C1 , K562 data, GI50 value: > 100 µM (inactive)

Entry O/N=C(\c1nc2ccc(Cl)cc2nc1O)C(O)c1ccc(Cl)cc1Cl (stereo unspecified) , K562 data, GI50 value: > 100 µM (inactive)

Entry COC(=O)C(=O)C1(CCC(C)=O)c2ccccc2-c2ccccc21 , K562 data, GI50 value: 44.5 µM (inactive)

Entry Sc1nn2c(COc3cc(Cl)c(OCc4nnc5sc(S)nn45)cc3Cl)nnc2s1 , K562 data, GI50 value: 33.7 µM (inactive)

Entry Cc1ccc(NC(=O)CC2Sc3ccccc3NC2=O)c(C)c1 (stereo unspecified) , K562 data, GI50 value: 4.01 µM (inactive)

Entry COc1ccc(/C=C2\N=C3N(Cc4ccccc4)C=C(N)N3C2=O)cc1 , K562 data, GI50 value: > 100 µM (inactive)

Entry Cn1c(CCC#N)nc2ccc(Br)cc2c1=O , K562 data, GI50 value: > 100 µM (inactive)

Entry Oc1cccc2cc(Br)cnc12 , K562 data, GI50 value: 3.21 µM (inactive)

###

system: NCI-H226; assay: NCI tumour cell line growth inhibition, 48 h
The source made the active and inactive calls. Rule as the data show it: active = GI50 up to about 1.1 µM and inactive = higher.
Below, each entry is listed with its recorded GI50.

Some solved cases for reference:
CC(NNC(=O)c1cc[n+]([BH2-]C#N)cc1)c1ccc(F)cc1 (stereo unspecified) = > 100 µM (inactive)
N#CC1C(=O)Nc2sc(C(=O)c3ccc(Br)cc3)c(N)c2C12CCCCC2 (stereo unspecified) = 7.8 µM (inactive)
Cn1ncc2c(NCCc3ccccc3)nc(Cl)nc21 = 21.5 µM (inactive)
C[C@H](CSC(=O)c1ccccc1)C(=O)N1c2ccccc2C[C@H]1C(=O)O = > 100 µM (inactive)
c1cnc(N2CCN(Cc3c[nH]c4ccccc34)CC2)nc1 = 58.7 µM (inactive)
Cc1nnc2sc(N/N=C/c3ccccc3)nn12 = > 100 µM (inactive)

CC(=O)Oc1ccn2nc(C)c(Br)c2c1 yielded GI50 of > 100 µM (inactive)

CC1=CP(=O)(c2ccccc2)C=C(C)C1=C(Cl)Cl (stereo unspecified) yielded GI50 of 3.19 µM (inactive)

O=[N+]([O-])/C(C(Cl)=C(Cl)Cl)=C(/Cl)SCc1ccccc1 yielded GI50 of 25.2 µM (inactive)

C/C(=N\NC(=S)NCc1ccccc1)c1nc2cccnc2[nH]1 yielded GI50 of 4.44 µM (inactive)

C[C@]12CC[C@H](O)CC1=CC[C@@H]1C2CC[C@]2(C)NC(=O)C(C#N)CC12 (stereo partly specified) yielded GI50 of > 100 µM (inactive)

###

system: SW-620; assay: NCI tumour cell line growth inhibition, 48 h
The source made the active and inactive calls. No stated cut-off is given here; in the data, active = GI50 up to about 1.1 µM and inactive = higher.
Return exactly one item of t = active, f = inactive

Completed entries (count: 4):
NC(=S)NNc1c([N+](=O)[O-])cnn(-c2ccccc2)c1=O = f
COc1cc(C(C)c2cc3c(cc2OCCO)OCO3)cc(OC)c1OC (stereo not given) = t
Oc1ccc(/N=N/c2ccc(Cl)cc2)cc1 = f
COc1cc([C@@H]2c3cc4c(cc3[C@@H](NC(=O)c3cccc(F)c3)C3COC(=O)[C@@H]32)OCO4)cc(OC)c1O (stereo not given in full) = t

## Task Test call for this molecule, please: N#Cc1cc2c(n(C3OC(CO)C(O)C(O)C3O)c1=S)CCCCCC2 (stereo not given)
## Result f

## Task Test call for this molecule, please: N#CSCC1COc2ccccc2O1 (stereo not given)
## Result f

## Task Test call for this molecule, please: O=C(CCCCCCCCC(=O)NN1C(=O)/C(=C\c2ccc(O)c(O)c2)SC1c1c(O)ccc2ccccc12)NN1C(=O)C(=Cc2ccc(O)c(O)c2)SC1c1c(O)ccc2ccccc12 (stereo not given)
## Result f

## Task Test call for this molecule, please: COc1cccc2c1C(CO)N1C(C#N)C3CC(C(=O)O)C(C1C2)N3C (stereo not given)
## Result f

## Task Test call for this molecule, please: CC1(C)CCCC2OC2CCC(C)(C)C1=O (stereo not given)
## Result f

## Task Test call for this molecule, please: CN1OC2OC(=O)OC2[C@H]1[C@H]1O[C@H](c2ccccc2)OC1(C)c1cc(OC(=O)c2ccccc2)ccc1OC(=O)c1ccccc1 (stereo not given in full)
## Result f

###

system: EKVX; test: NCI tumour cell line growth inhibition, 48 h
Calls of active or inactive are those of the source. Rule as the data show it: active = GI50 up to about 1.1 µM and inactive = higher.
Below, each entry is listed with its recorded GI50.

Some solved cases for reference:
CC1(C)CCCC2OC2CCC(C)(C)C1=O (stereo not given) = > 100 µM (inactive)
C/C(CC(=O)Nc1ccc(Cl)c(Cl)c1)=N/NC(=O)C[n+]1ccccc1 = > 100 µM (inactive)
Cc1ccc(OC2CC(n3cnc4ncnc(Cl)c43)OC2Oc2ccc(C)cc2)cc1 (stereo not given) = 33.3 µM (inactive)
c1ccc(Cc2nc(Cc3n[nH]c(Cc4ccccc4)n3)n[nH]2)cc1 = > 100 µM (inactive)
CC(=O)OC1COC(n2nc(/C=C/c3ccc(Cl)cc3)c(=O)n(/N=C/c3ccccc3)c2=S)C(OC(C)=O)C1OC(C)=O (stereo not given) = > 100 µM (inactive)
C(=C/c1nnnn1-c1ccccc1)/Nc1ccccc1 = 40.6 µM (inactive)
CCOC(=O)/C(=C\NC(C)(C)C)c1nc2ccccc2[nH]1 = 12.2 µM (inactive)
C[C@@H](CC(=O)OCc1ccccc1)OC1OC(COC(=O)C(C)(C)C)C(OC(=O)C(C)(C)C)C(OC(=O)C(C)(C)C)C1OC(=O)C(C)(C)C (stereo not given in full) = > 100 µM (inactive)
O=C(O)/C=C/c1c[nH]cn1 = > 500 µM (inactive)

Entry CC1CN1c1c(C(=O)/C=C/c2ccccc2)c(-c2ccccc2)nn(C)c1=O (stereo not given) , EKVX data, GI50 value: 17.3 µM (inactive)
